Test system: Escherichia coli TOP10;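 note: peptides expressed intracellularly from a pBAD plasmid library in pooled LB shake-flask culture, induced with 0.3% L-arabinose, DNA abundance read by NGS, three biological replicates, DESeq2 with apeglm shrinkage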
assayDetails: shrunken log2 fold change of peptide-encoding DNA abundance (4.5 h post-induction vs induction); higher = less antimicrobial activity (less host growth inhibition)
settings: time post-induction: 4.5 h; library: site-saturation at positions 5, 18, 19, 20
outcomeMeasure: shrunken log2 fold change
Lab note: jot down the number only; don't add units.

Let me know recorded shrunken log2 fold change for RRIRWRPPRLPRPRPRPMNSPRP , thanks.
-0.0812

Let me know recorded shrunken log2 fold change for RRIRFRPPRLPRPRPRPMFSPRP , thanks.
-0.0614

Let me know recorded shrunken log2 fold change for RRIRLRPPRLPRPRPRPRTCPRP , thanks.
-0.258

Let me know recorded shrunken log2 fold change for RRIRERPPRLPRPRPRPHEYPRP , thanks.
-0.0163

Let me know recorded shrunken log2 fold change for RRIRRRPPRLPRPRPRPEGKPRP , thanks.
0.0207

Let me know recorded shrunken log2 fold change for RRIRNRPPRLPRPRPRPDFIPRP , thanks.
-0.111

Let me know recorded shrunken log2 fold change for RRIRTRPPRLPRPRPRPQERPRP , thanks.
0.00298

Let me know recorded shrunken log2 fold change for RRIRSRPPRLPRPRPRPATWPRP , thanks.
-0.136
